Source of measurements: the Human Domainome abundance scans (Beltran et al. 2025)

B1: POU domain, class 2, transcription factor 2, residues 200 to 269; numbered along this chain, P09086 (parent)
chain: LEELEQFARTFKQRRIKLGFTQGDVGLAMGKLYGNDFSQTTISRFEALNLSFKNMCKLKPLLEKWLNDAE

Variants of: B1
Test: abundance fitness (aPCA) (normalised: wild type 0, dead -1); higher = more abundant; growth selection in yeast, the domain comes from the species named
Settings: Homo sapiens
Recorded metric: abundance fitness
Answers are plain numbers.

Consider the following illustrative entries.
In [3]: df
Out[3]:
                             sequence_chain    recorded_metric  value_measured
0  LEELEQFARTFKQRRIKLGFTQGDVGLAMGKLYGNDFSQTTISRFEALNLSFKNMCKLKPSLEKWLNDAE [L61S]  abundance fitness          -0.038
1  LEELEQFARTFKQRRIKLGFTQGDVGLAMGKLYGNDFSQTTISRFEALNLSFKNMCKLKPLLEKWLNDAY [E70Y]  abundance fitness          -0.195
2  LEELEQFARTFKQRRIKLDFTQGDVGLAMGKLYGNDFSQTTISRFEALNLSFKNMCKLKPLLEKWLNDAE [G19D]  abundance fitness          -0.143
3  LEELEQIARTFKQRRIKLGFTQGDVGLAMGKLYGNDFSQTTISRFEALNLSFKNMCKLKPLLEKWLNDAE [F7I]  abundance fitness          -0.397
4  LEELEQFARTFKQRRIKLGHTQGDVGLAMGKLYGNDFSQTTISRFEALNLSFKNMCKLKPLLEKWLNDAE [F20H]  abundance fitness          -0.035
5  LEELEQFARTFKQRRIKRGFTQGDVGLAMGKLYGNDFSQTTISRFEALNLSFKNMCKLKPLLEKWLNDAE [L18R]  abundance fitness          -0.233
6  LEELEQFARTFKQRRIKLGFVQGDVGLAMGKLYGNDFSQTTISRFEALNLSFKNMCKLKPLLEKWLNDAE [T21V]  abundance fitness          -0.573
7  LEELEQFARTFKQRRIKLGFTQQDVGLAMGKLYGNDFSQTTISRFEALNLSFKNMCKLKPLLEKWLNDAE [G23Q]  abundance fitness           -0.07
8  LEELEQFARTFKQRRIKLGFTQGDVGLAMGKLYGNDFSQTTISWFEALNLSFKNMCKLKPLLEKWLNDAE [R44W]  abundance fitness          -0.251
9  LEELEQFARTFKQRRIKLGFTQGDVGLAMGKLYGNDFSQTTISRFEALNLSFENMCKLKPLLEKWLNDAE [K53E]  abundance fitness           0.003

Batch request: abundance fitness per item, same order as input.
1. LEELEQFARTFKQRRIKLGFEQGDVGLAMGKLYGNDFSQTTISRFEALNLSFKNMCKLKPLLEKWLNDAE [T21E]
2. LEELEQFARTFKQRRIKLGFTQGDVGLAMGKYYGNDFSQTTISRFEALNLSFKNMCKLKPLLEKWLNDAE [L32Y]

1: -0.165; 2: 0
